# Test system: Enterococcus sp.
# protocol: In vitro antibacterial evaluation: minimum inhibitory concentration (MIC), broth dilution method
# Assay type: cell-based
# experimentalContext: Enterococcus faecium (GC 2243); broth dilution, 18 hours at 35° C.
# Text: […]
For each entry below, report its MIC Enterococcus faecium (GC 2243) value.

Previously resolved entries follow.
- CC(c1ccccc1)C1NC(=O)CNC(=O)C(CO)NC(=O)C(C(O)C2CNC(=N)N2C2OC(CO)C(O)C(O)C2O)NC(=O)C(C(O)C2CNC(=N)N2)NC(=O)C(Cc2ccc(OC3OC(CO)C(OC4OC5COC6(OC5C(O)C4O)C4CC5CC(C4)CC6C5)C(O)C3O)cc2)NC1=O (stereo not drawn): 1 to 2 µg/mL
- CC(c1ccccc1)C1NC(=O)CNC(=O)C(CO)NC(=O)C(C(O)C2CNC(=N)N2C2OC(CO)C(O)C(O)C2O)NC(=O)C(C(O)C2CNC(=N)N2)NC(=O)C(Cc2ccc3oc(SCC(=O)c4ccccc4)nc3c2)NC1=O (stereo not drawn): 16 µg/mL

Provide MIC Enterococcus faecium (GC 2243) value for the following compound: CC(c1ccccc1)C1NC(=O)CNC(=O)C(CO)NC(=O)C(C(O)C2CNC(=N)N2C2OC(CO)C(O)C(O)C2O)NC(=O)C(C(O)C2CNC(=N)N2)NC(=O)C(Cc2ccc3oc(SCC(=O)c4ccc(Cl)cc4)nc3c2)NC1=O (stereo not drawn) 8 µg/mL

----------
# Test system: Escherichia coli
# protocol: In vitro antibacterial evaluation: minimum inhibitory concentration (MIC), broth dilution method
# Assay type: cell-based
# experimentalContext: strain ATCC 25922
metric: MIC Escherichia coli (ATCC 25922)

- CC(C)=CCOc1cccc(C2OCC3OC(OC4C(CO)OC(Oc5ccc(CC6NC(=O)C(C(C)c7ccccc7)NC(=O)CNC(=O)C(CO)NC(=O)C(C(O)C7CNC(=N)N7C7OC(CO)C(O)C(O)C7O)NC(=O)C(C(O)C7CNC(=N)N7)NC6=O)cc5)C(O)C4O)C(O)C(O)C3O2)c1 (stereo not shown) [Example 165]: >64 µg/mL
- COc1cc(C2OCC3OC(OC4C(CO)OC(Oc5ccc(CC6NC(=O)C(C(C)c7ccccc7)NC(=O)CNC(=O)C(CO)NC(=O)C(C(O)C7CNC(=N)N7C7OC(CO)C(O)C(O)C7O)NC(=O)C(C(O)C7CNC(=N)N7)NC6=O)cc5)C(O)C4O)C(O)C(O)C3O2)ccc1[N+](=O)[O-] (stereo not shown) [Example 153]: 64 µg/mL
- CC(c1ccccc1)C1NC(=O)CNC(=O)C(CO)NC(=O)C(C(O)C2CNC(=N)N2C2OC(CO)C(O)C(O)C2O)NC(=O)C(C(O)C2CNC(=N)N2)NC(=O)C(Cc2ccc(OC3OC(CO)C(OC4OC5COC(c6ccc(-c7ccsc7)cc6)OC5C(O)C4O)C(O)C3O)cc2)NC1=O (stereo not shown) [Example 164]: >64 µg/mL
- CSc1ccc(C2OCC3OC(OC4C(CO)OC(Oc5ccc(CC6NC(=O)C(C(C)c7ccccc7)NC(=O)CNC(=O)C(CO)NC(=O)C(C(O)C7CNC(=N)N7C7OC(CO)C(O)C(O)C7O)NC(=O)C(C(O)C7CNC(=N)N7)NC6=O)cc5)C(O)C4O)C(O)C(O)C3O2)cc1 (stereo not shown) [Example 144]: 32 µg/mL
- CC(c1ccccc1)C1NC(=O)CNC(=O)C(CO)NC(=O)C(C(O)C2CNC(=N)N2C2OC(CO)C(O)C(O)C2O)NC(=O)C(C(O)C2CNC(=N)N2)NC(=O)C(Cc2ccc(OC3OC(CO)C(OC4OC(COC(=O)C(c5ccccc5)c5ccccc5)C(O)C(O)C4O)C(O)C3O)cc2)NC1=O (stereo not shown) [Example 96c]: 64 µg/mL

// for each molecule in input: emit MIC Escherichia coli (ATCC 25922)
1. COc1cccc(C2OC3C(OC4C(CO)OC(Oc5ccc(CC6NC(=O)C(C(C)c7ccccc7)NC(=O)CNC(=O)C(CO)NC(=O)C(C(O)C7CNC(=N)N7C7OC(CO)C(O)C(O)C7O)NC(=O)C(C(O)C7CNC(=N)N7)NC6=O)cc5)C(O)C4O)OC(CO)C(O)C3O2)c1 (single isomer, unassigned) [Example 137a]
2. CC(c1ccccc1)C1NC(=O)CNC(=O)C(CO)NC(=O)C(C(O)C2CNC(=N)N2C2OC(CO)C(O)C(O)C2O)NC(=O)C(C(O)C2CNC(=N)N2)NC(=O)C(Cc2ccc(OC3OC(CO)C(OC4OC5COC(c6cc7c(cc6Cl)OCO7)OC5C(O)C4O)C(O)C3O)cc2)NC1=O (stereo not shown) [Example 158]

[">64 µg/mL", "64 µg/mL"]

----------
# System: Enterococcus sp.
# protocol: In vitro antibacterial evaluation: minimum inhibitory concentration (MIC), broth dilution method
# Format: cell-based
# experimentalContext: broth dilution, 18 hours at 35° C.
Numbered stars: 1 amine (or outer) side, 2 acyl side, 3 side chain; on linkers, the order of the positions; unused ones are H or OH. Square brackets hold non-standard residues; d marks the D form. Peptide text beside a SMILES is read from it. ξ: configuration not given here. X1 = N=C1NCC(C(O)C(N[*:1])C(=O)[*:2])N1C1OC(CO)C(O)C(O)C1O; ξEnduracididine(βξ-OH,4'ξ) = N=C1NCC(C(O)C(N)C(=O)O)N1; ξCha(3ξ-Me) = CC(C1CCCCC1)C(N)C(=O)O; Cha = N[CH](CC1CCCCC1)C(=O)O
metric: MIC Enterococcus faecalis (GC 3059) (µg/mL)
Answers are plain numbers, in µg/mL.

Answered cases to consult:
• Cc1ccc(Oc2cccc(-c3nc4cc(CC5NC(=O)C(C(C)c6ccccc6)NC(=O)CNC(=O)C(CO)NC(=O)C(C(O)C6CNC(=N)N6C6OC(CO)C(O)C(O)C6O)NC(=O)C(C(O)C6CNC(=N)N6)NC5=O)ccc4o3)c2)cc1 (centres unmarked) = 8
• CC(c1ccccc1)C1NC(=O)CNC(=O)C(CO)NC(=O)C(C(O)C2CNC(=N)N2C2OC(CO)C(O)C(O)C2O)NC(=O)C(C(O)C2CNC(=N)N2)NC(=O)C(Cc2ccc3oc(-c4ccc(C(C)(C)C)cc4)nc3c2)NC1=O (centres unmarked) = 8
• CC(c1ccccc1)C1NC(=O)CNC(=O)C(CO)NC(=O)C(CC2CNC(=N)N2C2OC(CO)C(O)C(O)C2O)NC(=O)C(CC2CNC(=N)N2)NC(=O)C(Cc2ccc3oc(-c4ccc5c(c4)Cc4ccccc4-5)nc3c2)NC1=O (centres unmarked) = 16

For the next question, use this compound.
Hello, please tell me recorded MIC Enterococcus faecalis (GC 3059) for this one: CC(C1CCCCC1)C1NC(=O)CNC(=O)C(CO)NC(=O)C(C(O)C2CNC(=N)N2C2OC(CO)C(O)C(O)C2O)NC(=O)C(C(O)C2CNC(=N)N2)NC(=O)C(CC2CCCCC2)NC1=O (stereo not drawn) [Example 53] (cyclo(G[ξCha(3ξ-Me)][Cha][ξEnduracididine(βξ-OH,4'ξ)][X1]S); configuration not given here) 8

----------
# Test system: Streptococcus sp.
# protocol: In vitro antibacterial evaluation: minimum inhibitory concentration (MIC), broth dilution method
# Type: cell-based
# experimentalContext: strain GC 4563
metric: MIC Streptococcus pyogenes (GC 4563) (µg/mL)
Numbers only, in µg/mL.

Please review the entries below; each comes with its answer.
* CC(c1ccccc1)C1NC(=O)CNC(=O)C(CO)NC(=O)C(C(O)C2CN(Cc3ccccc3)C(=NCc3ccccc3)N2C2OC(CO)C(O)C(O)C2O)NC(=O)C(C(O)C2CN(Cc3ccccc3)C(=NCc3ccccc3)N2Cc2ccccc2)NC(=O)C(Cc2ccc(OC3OC(CO)C(OC4OC5COC6(OC5C(O)C4O)C4CC5CC(C4)CC6C5)C(O)C3O)cc2)NC1=O (centres unmarked) [Example 79] | 4
* CC(c1ccccc1)C1NC(=O)CNC(=O)C(CO)NC(=O)C(C(O)C2CNC(=N)N2C2OC(CO)C(O)C(O)C2O)NC(=O)C(C(O)C2CNC(=N)N2)NC(=O)C(Cc2ccc(OC3OC(CO)C(OC4OC5COC(c6cc7c(cc6Cl)OCO7)OC5C(O)C4O)C(O)C3O)cc2)NC1=O (centres unmarked) [Example 158] | 0.25
* CCOc1cc(C2OCC3OC(OC4C(CO)OC(Oc5ccc(CC6NC(=O)C(C(C)c7ccccc7)NC(=O)CNC(=O)C(CO)NC(=O)C(C(O)C7CNC(=N)N7C7OC(CO)C(O)C(O)C7O)NC(=O)C(C(O)C7CNC(=N)N7)NC6=O)cc5)C(O)C4O)C(O)C(O)C3O2)ccc1OC (centres unmarked) [Example 152] | 4

Hey, quick one: what's MIC Streptococcus pyogenes (GC 4563) for each of these?
1. CSc1ccc(C2OCC3OC(OC4C(CO)OC(Oc5ccc(CC6NC(=O)C(C(C)c7ccccc7)NC(=O)CNC(=O)C(CO)NC(=O)C(C(O)C7CNC(=N)N7C7OC(CO)C(O)C(O)C7O)NC(=O)C(C(O)C7CNC(=N)N7)NC6=O)cc5)C(O)C4O)C(O)C(O)C3O2)cc1[N+](=O)[O-] (centres unmarked) [Example 168]
2. CC(c1ccccc1)C1NC(=O)CNC(=O)C(CO)NC(=O)C(CC2CN(Cc3ccccc3)C(=N)N2C2OC(CO)C(O)C(O)C2O)NC(=O)C(CC2CNC(=N)N2)NC(=O)C(Cc2ccc(OC3OC(CO)C(OC4OC5COC6(OC5C(O)C4O)C4CC5CC(C4)CC6C5)C(O)C3O)cc2)NC1=O (centres unmarked) [Example 80]
3. CCCCCCCN1CC(C(O)C2NC(=O)C(C(O)C3CNC(=N)N3)NC(=O)C(Cc3ccc(OC4OC(CO)C(OC5OC6COC7(OC6C(O)C5O)C5CC6CC(C5)CC7C6)C(O)C4O)cc3)NC(=O)C(C(C)c3ccccc3)NC(=O)CNC(=O)C(CO)NC2=O)N(C2OC(CO)C(O)C(O)C2O)C1=N (centres unmarked) [Example 83]
4. CC(c1ccccc1)C1NC(=O)CNC(=O)C(CO)NC(=O)C(C(O)C2CNC(=N)N2C2OC(CO)C(O)C(O)C2O)NC(=O)C(C(O)C2CNC(=N)N2)NC(=O)C(Cc2ccc(OC3OC(CO)C(OC4OC(CO)C(O)C5OC(c6ccc(-c7ccsc7)cc6)OC45)C(O)C3O)cc2)NC1=O (centres unmarked) [Example 164a]

1. 0.5
2. 8
3. 0.25
4. 0.5

All figures here come from patent US8247211B2.
